Documented cytotoxicity at 10 µM across a set of molecules
Experiment: Toxicity liver stage against HepG2, at 10uM
Format: cell-based
Parameters: test concentration 10 uM, cell line HepG2-A16-CD81EGFP
Conditions: human, HepG2-A16-CD81EGFP cells; read-out: INHIBITION
Report the value in % with no unit label.

Worked examples follow.
The molecule CN(C)c1cccc(C(=O)N2CCn3c(nnc3C3CC3)C2)c1 showed cytotoxicity at 10 µM equal to 0.7

Short answer for O=C(c1n[nH]c2ccccc12)N1CCCC1c1noc(C2CC2)n1 (configuration not stated) : cytotoxicity at 10 µM was -10.8

cytotoxicity at 10 µM for O=C(Cc1ccc2c(c1)OCCO2)NCc1ccc(-n2cncn2)nc1 is -20.5

The molecule listed as NC(=O)NCC(=O)N1CCC2(CC1)c1ccccc1CC2O (configuration not stated) shows cytotoxicity at 10 µM equal to 4.22

Here's the next entry for you.
Reported cytotoxicity at 10 µM of COc1ccc(-n2ccc(C(=O)NCCN3CCCCCC3)n2)cc1 : -3.84

---

Experiment: Toxicity liver stage against HepG2, at 10uM
Format: cell-based
Parameters: test concentration 10 uM, cell line HepG2-A16-CD81EGFP
Settings: human, HepG2-A16-CD81EGFP cells; read-out: INHIBITION
Parameter cytotoxicity at 10 µM: see the listing below.
Please state the figure in %; there is no need to write the unit.

Reference set, count: 3
Looking up CN1C(=O)C2(CCN(CC3CCC3)C2)c2ccccc21 (stereo unspecified) , I see its cytotoxicity at 10 µM listed as -71.3

Form: compound = O=C(NCCc1ccc(F)cc1)NC1CCCc2c1cnn2CCO (stereo unspecified) ; cytotoxicity at 10 µM = -3.46

For record CC(C)c1nnc2n1CCN(CCS(=O)(=O)c1ccccc1)C2 the listed cytotoxicity at 10 µM is -8.22

Further cases:
Item: COC[C@@H]1CCCN1C(=O)CCc1c(C)nn(C)c1C | cytotoxicity at 10 µM: 5.01

Memo: O=C(CCn1cncn1)N1CCCC1c1noc(C2CC2)n1 (stereo unspecified) , reported cytotoxicity at 10 µM: -23.3

For Cc1cnc(N2CCC3(CCN(CC4CC4)C3=O)CC2)nc1 the compound record lists cytotoxicity at 10 µM as 6.17

---

Assay: Toxicity liver stage against HepG2, at 10uM
Assay type: cell-based
Set-up: test concentration 10 uM, cell line HepG2-A16-CD81EGFP
Conditions: human, HepG2-A16-CD81EGFP cells; read-out: INHIBITION
Value Type: cytotoxicity at 10 µM (%)
Numeric answer only, unit % assumed.

Guide cases for cytotoxicity at 10 µM, answers given:
Briefly, cytotoxicity at 10 µM measured for Cc1noc([C@@H]2CC[C@@H]3[C@@H](CCN3S(=O)(=O)c3ccccc3)O2)n1 : 2.43

Input CCN1CCC2(COCc3c(C)nc(N4CCOCC4)nc32)C1 (stereo unspecified) . Output cytotoxicity at 10 µM: -141

# cytotoxicity at 10 µM (compound: Cc1ccc(C(=O)NCCCn2cccn2)c(=O)[nH]1 ) is 3.54

Recorded cytotoxicity at 10 µM (compound Cc1ccc(C(=O)Nc2ccc3c(c2)N(C)CCN(C)C3)c(=O)[nH]1 ): -2.17

Measured cytotoxicity at 10 µM, O=C(C1SCCc2sccc21)N1CCN(CC(F)F)CC1 (stereo unspecified) : -4.5

Further cases:
Sample CCCS(=O)(=O)N1CCC2(CC(=O)N(c3cnn(C)c3)C2)C1 (stereo unspecified) ; cytotoxicity at 10 µM observed: 4.59

What the record says about CN(Cc1cn(CC2CCNCC2)nn1)CC1CCCCO1 (stereo unspecified) : cytotoxicity at 10 µM is -1.9

Notebook: Cc1nc(CN2CCOCC2c2[nH]ncc2C)cs1 (stereo unspecified) , cytotoxicity at 10 µM read as 2.15

// CCn1nc(C)c(CCNC(=O)C2CCCN(C(C)=O)C2)c1C (stereo unspecified) : cytotoxicity at 10 µM value = -20.8

// cytotoxicity at 10 µM lookup, compound = O=S(=O)(c1ccc(F)cc1)N1CCCn2cnc(CN3CCCC3)c2C1 , result: 7.78

Entry CO[C@H]1CO[C@@]2(CCCN(C(=O)N(C)C)C2)C1 — recorded cytotoxicity at 10 µM = -97.4

So for CS(=O)(=O)c1ccc(OCCNCc2cccc(O)c2)cc1 , the logged cytotoxicity at 10 µM turned out to be 2.21

The value of cytotoxicity at 10 µM measured for the compound Cc1c(CCC(=O)N2CCOC(c3cnccn3)C2)cnn1C (stereo unspecified) turned out to be -1.87

The recorded cytotoxicity at 10 µM for Cc1cc(C)cc(OCCC(=O)N2CCCC(n3cncn3)C2)c1 (stereo unspecified) is -3.76
